ASSAYED TARGET: T1, Duck egg lysozyme (DEL), D65N + N103D double mutant of the DEL-II isoform (Anas platyrhynchos, DEL-II double mutant, strain)
T1 construct: duck egg lysozyme, DEL-II isoform, D65N + N103D double mutant; differs from HEL3X at 25 amino acids; source: Pichia pastoris, secreted, purified from culture supernatant (ion exchange)
T1 chain: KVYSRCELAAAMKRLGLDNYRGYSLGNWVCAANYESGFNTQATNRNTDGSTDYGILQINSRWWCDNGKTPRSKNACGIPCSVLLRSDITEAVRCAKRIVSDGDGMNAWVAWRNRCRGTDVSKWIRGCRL
ASSAY OVERVIEW: BLI; BLItz (ForteBio); biotinylated Hy10 Fab variant immobilised on streptavidin biosensors (rehydrated in PBS with 0.1% wt/vol BSA); soluble monomeric lysozyme antigen as analyte at a range of concentrations; global fit, 1:1 Fab-lysozyme interaction
CONDITION SET: both partners purified
QUANTITY KIND: Ka (M⁻¹)
Give the value, in units of M⁻¹, as a plain number.

Data point: Hy10 Fab I29F/S52T/Y53F (Fab, V domains shown, as the heavy chain of Dm5 with the stated changes; as the light chain of Dm5; source: Expi293, transient (pCEP4), purified (Talon resin, gel filtration)) VH: DVQLQESGPSLVKPSQTLSLTCSVTGDSFTSDYWSWIRKFPGNRLEYMGYVTFSGSTYYNPSLKSRISITRDTSKNQYYLDLNSVTTEDTATYYCANWDGDYWGQGTLVTVSA VL: DIVLTQSPATLSVTPGNSVSLSCRASQSIGNNLHWYQQKSHESPRLLIKYASQSISGIPSRFSGSGSGTDFTLSINSVETEDFGMYFCQQSNSWPYTFGGGTKLEIK ; Ka = 6.1e+09

Record Hy10 Fab Y53F/S56R (Fab, V domains shown, as the heavy chain of Dm5 with the stated changes; as the light chain of Dm5; source: Expi293, transient (pCEP4), purified (Talon resin, gel filtration)) VH: DVQLQESGPSLVKPSQTLSLTCSVTGDSITSDYWSWIRKFPGNRLEYMGYVSFSGRTYYNPSLKSRISITRDTSKNQYYLDLNSVTTEDTATYYCANWDGDYWGQGTLVTVSA VL: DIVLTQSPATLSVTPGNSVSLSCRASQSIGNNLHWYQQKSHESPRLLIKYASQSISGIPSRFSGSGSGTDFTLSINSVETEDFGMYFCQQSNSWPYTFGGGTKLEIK . Reported Ka: 3.73e+07
